Measured composite z-score of individual entries
EXPERIMENT_SUMMARY: probe aLefty2 binding to arrayed compounds – biochemical, biotinylated probe, 635/667 nm fluorescence, primary screen (AID 1094);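 further: score merges spot fluorescence near 667 nm with spot signal-to-noise ratio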
CONDITION_INFO: higher = more signal; small-molecule microarray, probe aLefty2, fluorescence unless noted
PROPERTY_NAME: composite z-score

> print(dat)
                                    molecule  reading
 1  CCCc1cc2c(n1Cc1ccco1)C(C)C1CN(C(=O)c3ccccc3)C(C)(C(=O)OC)C21 (configuration not stated)    0.849
 2  CCCC[C@@H]1C[C@H]1[C@@H](NP(=O)(c1ccccc1)c1ccccc1)c1ccc(Cl)cc1    0.195
 3  CCCc1cc2c(n1Cc1cccc(Cl)c1)C(C)C1CN(C(=O)c3ccccc3)C(C)(C(=O)OC)C21 (configuration not stated)    0.411
 4  O=P(c1ccccc1)(c1ccccc1)N1CC2(CC2)CC(O)(c2ccccc2)C1 (configuration not stated)  -0.0208
 5                COc1cc2c(cc1O)C=[N+](C)CC2   0.0571
 6  CN1CCC(c2ccc(CO)cc2)=CC1C1CC1 (configuration not stated)   -0.308
 7  COC(=O)[C@@]1(Cc2ccccc2)[C@H]2c3cc(C(=O)N(C)C)[nH]c3C[C@H]2CN1C(=O)c1ccccc1  -0.0238
 8  OCc1ccc(C2=CC(c3cccs3)N(Cc3cccc(OC(F)(F)F)c3)CC2)cc1 (configuration not stated)   -0.145
 9  COC(=O)C1(C)C=C2C(=C(C)C(=O)C2C)CN1 (configuration not stated)  -0.0175
10  COC(=O)[C@H]1[C@H](c2ccccc2)C(=O)[C@]2(O)c3ccccc3O[C@@]12c1ccccc1   -0.267
11  CCCc1cc2c(n1CCO)C(C)C1CN(C(=O)c3ccccc3)C(C)(C(=O)OC)C21 (configuration not stated)    0.851
12  COC(=O)[C@H]1C(=O)c2ccccc2O[C@@](C(=O)OC)(c2ccccc2)[C@@H]1c1ccccc1   -0.159
13                   CN1CCc2nc(CO)c(CO)cc2C1  -0.0912
14  CN1CCC(c2ccc(CO)cc2)=CC1c1cccs1 (configuration not stated)   -0.166
15  COC(=O)[C@@]1(Cc2ccccc2)[C@H]2c3cc(C(=O)N(C)C)n(C)c3C[C@H]2CN1C(=O)c1ccccc1    0.402
16  C[C@@H]1OC=C2[C@@H](O)[C@H]3O[C@H]3C(=O)[C@]23[C@H]1[C@H]1C2=C([C@@H](O)[C@H]4O[C@H]4C2=O)[C@@H]3O[C@@H]1C   -0.101
17  COc1cc2c(cc1O)C(C)N(C)CC2 (configuration not stated)   0.0914
